assay: soluble on expression in E. coli; label from the status in PepcDB or PDB records

{"columns": ["biosequence", "soluble on expression in E. coli"],
 "data": [
  ["ISAVIVGTAEDIYSRVLALMCQRKGAVSICLQHGALMGDEAFIPVFTTYQAVFGAYEAEWFIRKGCKPEQILVTGHPRFDQIFNRTPMDMSIFYRKLAFQPTKKIVLIATQPFSEDFYSGVLQGLSDQKQLQIIIKPHPWEIGKNKLDLYHEAAKKHQACRVIKKELELYDLLPYVDAAVTQTSTVGLEAMLFQKPVLIGKSSGNRSYPYYESLGDFMFDQPDELAHTLVEVLRSP", "not soluble"],
  ["MGYIQSGKSKVEIVNVSETVTSAANVSQYPVESGAPITDNMMYTGGPVTISGWILAKNGNAAEQAYNTLVAWQKDVRWIVYRGRSYFKNAVIQDISKGYDTVENGFTITITLQPIRVAKTIWEKIPQPPVAKQPSKPSNAVYVTVQPGNTYWGWWQQYGTSIQQLRDWNKWPDRFIPIGARARVK", "not soluble"]
]}

====

assay: soluble on expression in E. coli; label from the status in PepcDB or PDB records

{"columns": ["biosequence", "soluble on expression in E. coli"],
 "data": [
  ["SETESDAEVACDLSNMEITEELRQYFAETERHREELLRRQQLDAERLNSYVNAEHDLYCNTRRSVEAPAERPGERRQAEMKRLYWDSAAKIQAMEANVQLSFDKHCDPKQPNYWPVIPPKF", "soluble"],
  ["MVKSIVILIETVTMKIPAVYSDGSFKTFNDSETTAQKLVDSGVVNTFAFGPTLVENGKVAVSENEEVGQDMADNPRTAIVVNEESDRSVHYIVIVSDGRTSESSGLTLYEMAELMKSYGVMTGYNLDVGDSSTMYSNGQVINKPTRKRKQNLRKGGERYRLHRLLKNLLASTFSPPILVLEHHHHHH", "soluble"],
  ["MAHHHHHHMDSTYKEPSSAAVPTSYAVLSLPSKATMRRKGYNPDEVNYNGGLATHPLATWKTFSLPDGCTYKDAVSAVQTANAKPWGPIKIRLNFSDGRYEQFERVAPSVMDSLQSTTTYSPNDAFKAETLSLSTMRRAQQQPRLRPLVDERGHHLSNKPIPRTFAPEELYKNCPPPVLSQPGYDFTPISYNTFLLNPQDPPHGVRNVQSNFMHSSCDYRPRSYLRPEQATGTSHASRHCHCNEVFQVGDHTMDFACEGTTVDHRNRLVKKDYSPVGTLKANSSIVGRRHARKPRFGCTGVADSQTVAAAVAPAADEETA", "soluble"]
]}

====

test: soluble on expression in E. coli; label from the status in PepcDB or PDB records

{"columns": ["biosequence", "soluble on expression in E. coli"],
 "data": [
  ["AHHHHHHGSNKRFPFPVGEPDFIQGDEAIARAAILAGCRFYAGYPITPASEIFEAMALYMPLVDGVVIQMEDEIASIAAAIGASWAGAKAMTATSGPGFSLMQENIGYAVMTETPVVIVDVQRSGPSTGQPTLPAQGDIMQAIWGTHGDHSLIVLSPSTVQEAFDFTIRAFNLSEKYRTPVILLTDAEVGHMRERVYIPNPDEIEIINRKLPRNEEEAKLPFGDPHGDGVPPMPIFGKGYRTYVTGLTHDEKGRPRTVDREVHERLIKRIVEKIEKNKKDIFTYETYELEDAEIGVVATGIVARSALRAVKMLREEGIKAGLLKIETIWPFDFELIERIAERVDKLYVPEMNLGQLYHLIKEGANGKAEVKLISKIGGEVHTPMEIFEFIRREFK", "soluble"],
  ["MRKGCFGLVSLVLLLLVGCRSHPEIPVNDEQSLVMESSLLAAGISAEKPFLSTSDIQPSASSTLYNERQEPVTVHYRFYWYDARGLEMHPLERPRSVTIPAHSAVTLYGSANFLGAHKVRLYLYLLEHHHHHH", "soluble"]
]}

====

assay: soluble on expression in E. coli; label from the status in PepcDB or PDB records

{"columns": ["biosequence", "soluble on expression in E. coli"],
 "data": [
  ["GMGGAALPDNGWPADRIDTESAHSARIYDYIIGGKDYYPADKEAGDAMSREWPALPVHMRANRDWMNRAVAHLAKEAGIRQFLDIGTGIPTSPNLHEIAQSVAPESRVVYVDNDPIVLTLSQGLLASTPEGRTAYVEADMLDPASILDAPELRDTLDLTRPVALTVIAIVHFVLDEDDAVGIVRRLLEPLPSGSYLAMSIGTAEFAPQEVGRVAREYAARNMPMRLRTHAEAEEFFEGLELVEPGIVQVHKWHPDAATADGIRDEDIAMYGAVARKP", "soluble"],
  ["MNLTNYHSHTLYCDGRAGMEDFIRFAISRGFTSYGISSHAPLPFPTHWTMEWDRMDDYLDEFTRMKEKYASEIELAVGLEIDYLNEDSNPSVRRFQELPLDYRIGSVHLLYNDRDEVVDIDVCAEVFRDIVDQHFGGDLDRVIHLYYDRLLRMVELGGFDILGHADKMHHNAACYRPGLLDESWYDALIHDYFSAVAAKGYIVEINTKALHHLNTFFPNERYFPLLKELGVRVQVNSDSHYPERINSGRPEALAALQKAGFETVTEWHGGKWIEMPLLEHHHHHH", "soluble"]
]}

====

test: soluble on expression in E. coli; label from the status in PepcDB or PDB records
value.kind: soluble on expression in E. coli

The examples below pair each entry with its known result.
{"columns": ["biosequence", "soluble on expression in E. coli"],
 "data": [
  ["MSITQYLTEEHRKCDQIYAEVEKAVNEGNWEKAKELFKEFKEKTLLHFKKEEEVLFPEFEQRTGIVMGPTQVMRMEHDQARELLERMEKALEEKNKDEFLSLGESLMILIQQHNMKEEQILYPMSDQNLNAEKMVSKMAELGEV", "not soluble"],
  ["MSLNNYPFASMRDCFDMSAYFVVGPQDCKGRPVTDVVDDALRGGATFIQLRAKNADAKDITEMARDIAQVIKNSGKSDSVAFVIDDRVDVVWQARDKGIKVDGVHIGQTDMEPQEARALLGEDAIVGLSAETESLVKLINELPSGCIDYIGAGPLHVSTTKPEASVGGNDGSGHTLDEEQINAICAASEFPVVVGGGVHADDMEMLARSKAAGWFVVSAIAGADDPEAATREMVTRWKAVRGDAEGHHHHHH", "soluble"],
  ["GSHMASEKVAVETSVYLSELEWKSASTGYGEIQKDASCDGNTITLKGENGEKVSYDKGIGTHAHSEIVYSLEGLDYYDYFETFVGVDQEMAGTVASISFEVYLDNEKVFDSGLMTGDTTQKHVKVPIAGKNTLKLVVKDGGDSIGSDHGSFGDAKLT", "soluble"],
  ["GPGSMAMRDVIGDPDLLLRKTPANPKYEHVKPVVETGMTAELARFMKNTGAALYRVSGEPFMRIRTRLIGDFVQKQQSQSGEIKDGGFAHPMDEYRAPDTQLPKEYLILDVRSEEEYAACHIKGALHYPKRRMVHAINPLLPEMFNFKNKENKLIVLYDLEEEMTIAQGIGQNVFEKGIDNLAVMTGGLREFVQDYADCIVGESPVPIVPRDTRLLKRAEAVSAARSETQRSAFSHKPKSLSNSLAKPRPR", "soluble"],
  ["MASMTGGQQMGRGSSTSLYKKAGLMPSPMEDIEEILITEEQLKAKVKELGEMITRDYEGKDLVLIGVLKGAIMFMSGLSRAIDLPLSIDFLAVSSYGSSTKSSGIVKIIKDHDIDIEGKDVLIVEDIIDSGLTLAYLRETLLGRKPRSLKICTILDKPERREADVKVDYCGFKIPDKFVVGYGLDYAEKYRNLPFIGVLKPELYK", "soluble"],
  ["MRCQPFCRNLAGFPQNSPAQSTTMTYTHGSALPSTDDVTIDADVATEELTGTAAFDAGVGDMPSWEELVAQHADSVYRLAFRLSGNQHDAEDLTQETFMRVFRSLKGYQPGTFEGWLHRITTNLFLDMVRHRAKIRMEALPEDYERVPGTDMTPEQAYNVSNLDPALQKALDDLSPDFRVAVVLCDVVGMSYDEIADTLGVKMGTVRSRIHRGRSQLRAHLENQATSDEGAQLLLATGR", "not soluble"],
  ["MASTKSELIERLATQQSHIPAKTVEDAVKEMLEHMASTLAQGGSGGLTKAEMSEYLFDKLGLSKRDAKELVELFFEEIRRALENGEQVELSGFGNFDLRDKNQRPGRNPKTGEDIPITARRVVTFRPGQKLKSRVENAGGGERIEIRGFGSFSLHYRAPRTGRNPKTGDKVELEGKYVPHFKPGKELRDRANIYGGSGHHHHHH", "soluble"],
  ["NDNSPRFEKSVYEADLAENSAPGTPILQLRAADLDVGVNGQIEYVFGAATESVRRLLRLDETSGWLSVLHRIDREEVNQLRFTVMARDRGQPPKTDKATVVLNIKDENDNVP", "soluble"]
]}

Problem: Entry MSKIASEVVATTLNDWYIAIKKQKVDESIKYYSEIKKLFDEMEEDQEVLAYYSLLEERHKMLLHSSRGEPLQKHTYFTEDNQNFITKTNDKLEYNFYLFEAMYEAYNKNYDRAINLYGLAEKKLAEIPDEIEAAEFYSKVSYLYTLVKQSIVAQHYIKNAISIYKRHPDYKCKLATSTMIAAANYADMKRFEEAEQYYLEAIDIAKETKDEFLKAQLFHNLSIVYSDWNKPDKCIESLEKAIGNESWLHSIYYINSLFMMIKELFKIDEKMKAINFYNKAQERLILMENKVYEAKISILYNLYCGELKNNFNNCISNIEFLKQQNELESVDELSYIAAKRFESIGAFEEATSFFNAKIWAEQKMNQVEGIL : reported soluble on expression in E. coli = ?
Solution: not soluble
